Measured composite z-score values are reported for all entries that follow.
- assay system: Torsin-1A-interacting protein 1 (Homo sapiens) (UniProt Q5JTV8)
- Sequence (Q5JTV8 whole entry, looked up): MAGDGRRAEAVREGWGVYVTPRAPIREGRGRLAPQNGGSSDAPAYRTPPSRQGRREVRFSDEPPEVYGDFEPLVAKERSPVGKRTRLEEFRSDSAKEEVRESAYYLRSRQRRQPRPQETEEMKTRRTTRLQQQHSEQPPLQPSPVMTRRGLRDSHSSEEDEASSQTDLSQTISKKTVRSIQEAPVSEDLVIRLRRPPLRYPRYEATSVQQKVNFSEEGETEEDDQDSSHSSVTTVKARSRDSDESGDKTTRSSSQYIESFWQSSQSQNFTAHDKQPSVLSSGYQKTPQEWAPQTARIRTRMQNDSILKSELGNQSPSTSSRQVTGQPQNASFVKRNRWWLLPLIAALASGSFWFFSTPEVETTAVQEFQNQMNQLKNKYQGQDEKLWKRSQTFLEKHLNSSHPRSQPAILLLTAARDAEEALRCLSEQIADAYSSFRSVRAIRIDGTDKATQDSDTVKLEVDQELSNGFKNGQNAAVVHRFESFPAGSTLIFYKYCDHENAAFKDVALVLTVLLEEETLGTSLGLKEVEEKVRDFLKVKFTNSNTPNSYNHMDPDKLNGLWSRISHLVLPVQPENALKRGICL
- protocol notes: compound microarray binding of lysate hLAP1 – cell lysate, small-molecule microarray, COS7 lysate, 635/667 nm fluorescence, primary screen (AID 1116)
- experimental context: 635 nm fluorescence, higher = more signal
property: composite z-score

1. COC(=O)c1ccc(OC)c(/C=C\CC(CCc2ccccc2)OC(=O)c2ccncc2)c1 (centres undefined) | 0.489
2. COCCOC(=O)N1C(=O)[C@@]2(c3cc(C#CCNC(N)=O)ccc31)[C@H](C(=O)N1CCCCCCC1)[C@H]1C(=O)O[C@H](c3ccccc3)[C@H](c3ccccc3)N1[C@@H]2c1ccc(OCCO)cc1 | 0.263
3. COCCOC(=O)N1C(=O)[C@@]2(c3cc(C#Cc4ccc(OC)cc4)ccc31)[C@H](C(N)=O)[C@H]1C(=O)O[C@H](c3ccccc3)[C@H](c3ccccc3)N1[C@@H]2c1ccc(OCCO)cc1 | 1.09
4. CCCc1cc2c(n1Cc1ccc(OC)cc1)C(C)C1CN(C(=O)c3ccccc3)C(C)(C(=O)OC)C21 (centres undefined) | 2.19
5. C[N+](C)(C)CCCC[C@@H]1NC(=O)[C@H]2C[C@@H](C(=O)NCCCCCCN)[C@@H](c3cccc(OCCO)c3)N2C1=O | 1.21
6. CCCCCCC#C[Si](O[C@H](c1ccccc1)c1cn(Cc2cccc(Cl)c2)nn1)(C(C)C)C(C)C | 0.343
7. CCN(CC)c1ccc(N2CC=CC34O[C@@H]5/C=C\CCCOC(=O)C5[C@H]3C(=O)N(CCCCCO)[C@@H]4C2=O)cc1 (some centres undefined) | 0.424
8. C[N+](C)(C)CCCCCCNC(=O)[C@@H]1C[C@@H]2C(=O)NCC(=O)N2[C@@H]1c1cccc(OCCO)c1 | 0.602
9. CO[C@H]1O[C@H](CO)[C@@H](OC(=O)Nc2cccc(F)c2)[C@H](OC(=O)Nc2ccc3c(c2)OCO3)[C@H]1OC(=O)Nc1ccc2c(c1)OCO2 | 3.02
10. COC(=O)[C@@]1(Cc2ccc(F)cc2)[C@H]2c3cc(C(=O)N(C)C)n(Cc4ccc(C)c(F)c4F)c3C[C@H]2CN1C(=O)c1ccccc1 | 0.692
11. CC1CC/C=C\[C@H]2OC34C=CCN(Cc5ccccc5)C(=O)[C@H]3N(CCO)C(=O)[C@@H]4C2C(=O)O1 (some centres undefined) | 1.62
12. O=C1NC(=O)C2C1C=CC(C(O)CCc1ccccc1)N2Nc1ccccn1 (centres undefined) | 2.33
13. CCCC[C@@H](O)C1=C(COc2ccccc2)Cn2c(=O)n(-c3ccccc3)c(=O)n2[C@H]1CO | -0.222
14. O=C1N(Cc2ccccc2)c2ccccc2[C@H]2OC(c3ccc(OCCCO)cc3)=N[C@@]12CCS(=O)(=O)c1ccccc1 | 0.557

----------
- protocol notes: plasmodial surface anion channel blockers, osmotic lysis – cell-based, P. falciparum Indochina, OD700, 2 h, primary screen (AID 1155);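 note: lysis reports solute entry through the parasite surface anion channel PSAC; channel blockers reduce lysis of infected cells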
- experimental context: P. falciparum Indochina infected erythrocytes, higher = more signal, called active from +8 up or from −8 down
Activity calls are given as the source filed them.
property: z-score

1) NC(=O)[C@H]1[C@@H]2C(=O)O[C@@H](c3ccccc3)[C@@H](c3ccccc3)N2[C@@H](c2ccc(O)cc2)[C@]12C(=O)Nc1ccc(C#CC3(O)CCCCCC3)cc12 | -0.436 (inactive)
2) Cc1ccc(S[C@]2(C(=O)NCc3ccccc3)CC(=O)N(C3Cc4ccccc4C3)[C@@H]2c2ccc(CO)cc2I)cc1 | -0.533 (inactive)
3) CC(C)CNC(=O)[C@@]1(C)c2ccccc2C(=O)N(Cc2ccccc2)[C@H]1c1ccc(CO)cc1 | 0.122 (inactive)
4) CCCCC(CC)C(O)C1C=CC2C(=O)NC(=O)C2N1Nc1ccccn1 (configuration not stated) | 0.648 (inactive)
5) C=CCNC(=O)[C@H]1[C@@H]2C(=O)O[C@@H](c3ccccc3)[C@@H](c3ccccc3)N2[C@@H](c2ccc(OCCO)cc2)[C@]12C(=O)N(C(=O)OCCOC)c1ccc(C#CC3=CCCCC3)cc12 | 1.76 (inactive)
6) COCCCNC(=O)[C@@]1(Cc2ccccc2)COC(c2ccc(OCCCO)cc2)=N1 | 4.97 (inactive)
7) COC(=O)c1ccc(OC)c(/C=C\CC(CCc2ccccc2)OC(C)=O)c1 (configuration not stated) | 0.865 (inactive)
